Each recorded value in this set is attributed to patent US20260151494A1.

Target: T1, human CD71 extracellular domain (human, UniProt P02786 89-760)
T1 construct: also called hCD71; human CD71-ECD
T1 sequence (P02786 89-760): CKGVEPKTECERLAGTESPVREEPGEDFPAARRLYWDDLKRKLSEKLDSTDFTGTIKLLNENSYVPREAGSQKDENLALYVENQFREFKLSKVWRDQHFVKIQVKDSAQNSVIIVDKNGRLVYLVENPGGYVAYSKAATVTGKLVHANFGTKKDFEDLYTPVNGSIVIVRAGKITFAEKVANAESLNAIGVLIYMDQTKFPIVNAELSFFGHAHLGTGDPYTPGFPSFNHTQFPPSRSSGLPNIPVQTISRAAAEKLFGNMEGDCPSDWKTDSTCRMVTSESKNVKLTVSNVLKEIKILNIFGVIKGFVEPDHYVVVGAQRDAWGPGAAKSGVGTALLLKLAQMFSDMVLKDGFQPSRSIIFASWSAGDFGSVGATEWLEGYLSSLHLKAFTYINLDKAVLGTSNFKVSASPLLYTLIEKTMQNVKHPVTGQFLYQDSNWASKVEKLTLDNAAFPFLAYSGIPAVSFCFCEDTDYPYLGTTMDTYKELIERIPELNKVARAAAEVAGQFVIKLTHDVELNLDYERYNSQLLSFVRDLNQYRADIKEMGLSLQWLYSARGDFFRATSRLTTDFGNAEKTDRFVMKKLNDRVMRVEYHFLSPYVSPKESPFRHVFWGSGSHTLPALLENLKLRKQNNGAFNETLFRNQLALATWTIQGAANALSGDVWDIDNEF
Test: primary ELISA screen, human CD71-ECD; note: test concentration or dose not given here
measurement type: RLU (RLU)
Hi! Could you send only the number? It should be in RLU, unit omitted.

// solved cases for RLU follow
>  <binder>
CD71-binding FN3 domain of SEQ ID NO: 345 (designed binder, not shown: C-terminal poly-histidine tag added to each FN3 domain) MSLPAPKNLVVSRVTEDSAHLSWTAPDAAFDSFEIGYFENDYFGEAIVLTVPGSERSYDLTGLKPGTEYVVFIGGVKGGKWSAPLSAIFTT

>  <RLU [RLU]>
2.55e+06

$$$$
>  <binder>
CD71-binding FN3 domain of SEQ ID NO: 335 (designed binder, not shown: C-terminal poly-histidine tag added to each FN3 domain) MSLPAPKNLVVSRVTEDSARLSWTAPDAAFDSFFIGYLEPQPPGEAIDLYVPGSERSYDLTGLKPGTEYNVTIQGVKGGFPSLPLVATFTT

>  <RLU [RLU]>
5.34e+06

$$$$
>  <binder>
CD71-binding FN3 domain of SEQ ID NO: 339 (designed binder, not shown: C-terminal poly-histidine tag added to each FN3 domain) MSLPAPKNLVVSRVTEDSARLSWTAPDAAFDSFEIGYWEMSYYGEAIVLTVPGSERSYDLTGLKPGTEYGVSIGGVKGGRWSLPLSAIFTT

>  <RLU [RLU]>
2.14e+06

$$$$
>  <binder>
CD71-binding FN3 domain of SEQ ID NO: 342 (designed binder, not shown: C-terminal poly-histidine tag added to each FN3 domain) MSLPAPKNLVVSRVTEDSARLSWTAPDAAFDSFFIGYLEPQPPGEAIVLTVPGSERSYDLTGLKPGTEYNVTIQGVKGGFPSEPLIANFTT

>  <RLU [RLU]>
4.44e+06

$$$$
>  <binder>
CD71-binding FN3 domain of SEQ ID NO: 343 (designed binder, not shown: C-terminal poly-histidine tag added to each FN3 domain) MSLPAPKNLVVSRVTEDSARLSWTAPDAAFDSFFIGYLEPQPPGEAIALWVPGSERSYDLTGLKPGTEYNVTIQGVKGGFPSEPLVATFTT

>  <RLU [RLU]>
5.25e+06

$$$$
>  <binder>
CD71-binding FN3 domain of SEQ ID NO: 341 (designed binder, not shown: C-terminal poly-histidine tag added to each FN3 domain) MSLPAPKNLVVSRVTEDSARLSWTAPDAAFDSFFIGYLEPQPPGEAIELYVPGSERSYDLTGLKPGTEYNVTIQGVKGGFPSLPLVAIFTT

>  <RLU [RLU]>
5.35e+06

$$$$
>  <binder>
CD71-binding FN3 domain of SEQ ID NO: 338 (designed binder, not shown: C-terminal poly-histidine tag added to each FN3 domain) MSLPAPKNLVVSRVTEDSARLSWTAPDAAFDSFEIGYFENLYLGEAIVLTVPGSERSYDLTGLKPGTEYCVYICGVKGGRDSMPLSAIFTT

>  <RLU [RLU]>
2.29e+06

$$$$
>  <binder>
CD71-binding FN3 domain of SEQ ID NO: 334 (designed binder, not shown: C-terminal poly-histidine tag added to each FN3 domain) MSLPAPKNLVVSRVTEDSARLSWTAPDAAFDSFEIAYQELSLWGEAIVLTVPGSERSYDLTGLKPGTEYWVQIGGVKGGIWSSPLVASFTT

>  <RLU [RLU]>
2.7e+06

$$$$

Query block: # query: RLU of entry CD71-binding FN3 domain of SEQ ID NO: 337 (designed binder, not shown: C-terminal poly-histidine tag added to each FN3 domain) MSLPAPKNLVVSRVTEDSARLSWTAPDAAFDSFFIGYLEPQPPGEAIHLYVPGSERSYDLTGLKPGTEYNVTIQGVKGGFPSIPLIASFTT
Result block: 5.28e+06
